The reported measurements were obtained from ChEMBL document CHEMBL1123169.

Listing of recorded Binding affinity by entry.
biological target: UniProt P02766
Output: the number by itself.

>  <compound>
Oc1ccc(-c2c(Cl)cc(Cl)cc2Cl)cc1

>  <subject_of_test>
UniProt P02766

>  <Binding affinity>
46

$$$$

## Input Form field: Binding affinity recorded for N[C@@H](Cc1cc(I)c(Oc2cc(I)c(O)c(I)c2)c(I)c1)C(=O)O with UniProt P02766 (enter value)
## Output 100

## Input Form field: Binding affinity recorded for NC(Cc1cc(I)c(-c2cc(I)c(O)c(I)c2)c(I)c1)C(=O)O (racemic) with UniProt P02766 (enter value)
## Output 331

## Input Form field: Binding affinity recorded for Oc1c(-c2cc(Cl)c(Cl)c(Cl)c2)cc(Cl)c(Cl)c1Cl with UniProt P02766 (enter value)
## Output 208

## Input Form field: Binding affinity recorded for Oc1ccc(-c2c(Cl)c(Cl)c(O)c(Cl)c2Cl)cc1 with UniProt P02766 (enter value)
## Output 398

## Input Form field: Binding affinity recorded for O=C(O)c1cc(I)c(-c2cc(I)c(O)c(I)c2)c(I)c1 with UniProt P02766 (enter value)
## Output 1150

## Input Form field: Binding affinity recorded for Oc1ccc(-c2cc(Cl)c(Cl)c(Cl)c2Cl)cc1 with UniProt P02766 (enter value)
## Output 286

## Input Form field: Binding affinity recorded for NC(Cc1ccc(Oc2cc(I)c(O)c(I)c2)c(I)c1)C(=O)O (stereo not drawn) with UniProt P02766 (enter value)
## Output 23
